B1: HDAC6 (parent)
chain: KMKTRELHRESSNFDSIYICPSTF

Variants of: B1
Test: protein stability index of a GFP-peptide fusion (GPS, HEK-293T) (PSI 1-6); higher = more stable;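 further: lentivirally expressed fusions sorted by FACS into six bins by GFP to DsRed ratio, PSI derived from sequencing read proportions per bin multiplied by bin number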
Conditions: c terminus: a fixed tail appended
Reported protein stability index by item:
Give the figure only, with no unit attached.

Example cases with answers are listed next.
{"Sequence Change": "I17L", "protein stability index": 2.13}
{"Sequence Change": "S11Q", "protein stability index": 2.36}
{"Sequence Change": "T4D", "protein stability index": 2.89}

Consider the variant `K3D` and give its recorded protein stability index.
2.59

Consider the variant `I19T` and give its recorded protein stability index.
2.25

Consider the variant `C20P` and give its recorded protein stability index.
2.69

Consider the variant `M2R` and give its recorded protein stability index.
2.12

Consider the variant `S16K` and give its recorded protein stability index.
2.29

Consider the variant `S12K` and give its recorded protein stability index.
2.74

Consider the variant `R5C` and give its recorded protein stability index.
1.91

Consider the variant `T23I` and give its recorded protein stability index.
1.71

Ref: the supplement of paper PMC10567573
